Reported values of ED50 (ug injection-1) for individual entries
system: Gonadotropin-releasing hormone receptor (Rattus norvegicus) (UniProt P30969)
Sequence (P30969 whole entry): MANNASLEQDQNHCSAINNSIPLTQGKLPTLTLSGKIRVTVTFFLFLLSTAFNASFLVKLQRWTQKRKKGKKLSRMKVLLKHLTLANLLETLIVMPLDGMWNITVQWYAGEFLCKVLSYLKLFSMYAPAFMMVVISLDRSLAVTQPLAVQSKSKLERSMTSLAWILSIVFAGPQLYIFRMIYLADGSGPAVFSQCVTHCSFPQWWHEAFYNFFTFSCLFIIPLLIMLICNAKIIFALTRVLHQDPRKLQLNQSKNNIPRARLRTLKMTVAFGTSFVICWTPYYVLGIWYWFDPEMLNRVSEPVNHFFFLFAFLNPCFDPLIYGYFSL
assay.remarks: Antiovulatory activity on proestrus was measured by administering as a solution in 50% propylene glycol / 0.9% saline in rat
Type: functional
Square brackets hold non-standard residues; d marks the D form. Peptide text beside a SMILES is read from it. d(hArg(Et2)) = CCN=C(NCC)NCCCC[C@@H](N)C(=O)O; dPhe(4-Cl) = N[C@H](Cc1ccc(Cl)cc1)C(=O)O; d2Nal = N[C@H](Cc1ccc2ccccc2c1)C(=O)O
API doc: respond with a numeric literal and nothing else, no unit.

[
  {
    "molecule": "CCNC(=NCCCC[C@@H](NC(=O)[C@H](Cc1ccc(O)cc1)NC(=O)[C@H](CO)NC(=O)[C@@H](Cc1cccnc1)NC(=O)[C@@H](Cc1ccc(Cl)cc1)NC(=O)[C@@H](Cc1ccc2ccccc2c1)NC(C)=O)C(=O)N[C@@H](CC(C)C)C(=O)N[C@@H](CCCN=C(N)N)C(=O)N1CCC[C@H]1C(=O)N[C@H](C)C(N)=O)NCC",
    "val": 0.6
  },
  {
    "molecule": "CC(=O)N1CCC[C@H]1C(=O)N[C@H](Cc1ccc(F)cc1)C(=O)N[C@H](Cc1ccc2ccccc2c1)C(=O)N[C@@H](CO)C(=O)NC(Cc1ccc(O)cc1)C(=O)N[C@@H](Cc1ccc2ccccc2c1)C(=O)N[C@@H](CC(C)C)C(=O)N[C@@H](CCCN=C(N)N)C(=O)N1CCC[C@H]1C(=O)NCC(N)=O (stereo in doubt)",
    "val": 2.2
  },
  {
    "molecule": "CCNC(=NCCCC[C@@H](NC(C)=O)C(=O)N[C@H](Cc1ccc(Cl)cc1)C(=O)N[C@H](Cc1c[nH]c2ccccc12)C(=O)N[C@@H](CO)C(=O)N[C@@H](Cc1ccc(O)cc1)C(=O)N[C@H](Cc1ccc2ccccc2c1)C(=O)N[C@@H](CC(C)C)C(=O)N[C@@H](CCCN=C(N)N)C(=O)N1CCC[C@H]1C(=O)N[C@H](C)C(N)=O)NCC",
    "val": 8
  },
  {
    "molecule": "CCNC(=NCCCC[C@@H](NC(=O)[C@H](Cc1ccc(O)cc1)NC(=O)[C@H](CO)NC(=O)[C@@H](Cc1c[nH]c2ccccc12)NC(=O)[C@@H](Cc1ccc(Cl)cc1)NC(=O)[C@@H](Cc1ccc2ccccc2c1)NC(C)=O)C(=O)N[C@@H](Cc1c[nH]c2ccccc12)C(=O)N[C@@H](CCCN=C(N)N)C(=O)N1CCC[C@H]1C(=O)N[C@H](C)C(N)=O)NCC",
    "val": 1.2
  },
  {
    "molecule": "CCNC(=NCCCC[C@@H](NC(=O)[C@H](Cc1ccc(O)cc1)NC(=O)[C@H](CO)NC(=O)[C@@H](Cc1c[nH]c2ccccc12)NC(=O)[C@@H](Cc1ccc(Cl)cc1)NC(=O)[C@@H](Cc1ccc2ccccc2c1)NC(C)=O)C(=O)N[C@@H](Cc1ccccc1)C(=O)N[C@@H](CCCN=C(N)N)C(=O)N1CCC[C@H]1C(=O)N[C@H](C)C(N)=O)NCC (Ac-[d2Nal][dPhe(4-Cl)][dW]SY[d(hArg(Et2))]FRP[dA]-NH2)",
    "val": 0.75
  }
]

// returns reported ED50 (ug injection-1) for input CCNC(=NCCCC[C@@H](NC(=O)[C@H](Cc1ccc(O)cc1)NC(=O)[C@H](CO)NC(=O)[C@@H](Cc1c[nH]c2ccccc12)NC(=O)[C@@H](Cc1ccc(Cl)cc1)NC(=O)[C@@H](Cc1ccc(Cl)cc1)NC(C)=O)C(=O)N[C@@H](CC(C)C)C(=O)N[C@@H](CCCN=C(N)N)C(=O)N1CCC[C@H]1C(=O)NCC(N)=O)NCC
2
